The reported measurements were obtained from patent US6706740B2.

# Test system: Rhizoctonia solani (RHIZSO)
# test_summary: microbe, parasite or virus in culture
# Assay type: cell-based
# experimental_context: Rhizoctonia solani, read-out: RHIZSO in vitro Growth Inhibition
endpoint_label: inhibition at 25 ppm

Here are 6 compounds together with their reported answers.
Cc1cc(C)c(C(=O)NC2CC(C)(C)CC(C)(C)C2)c(O)n1    < 80%
COc1ccnc(C(=O)NC(COC(=O)C(Cc2ccccc2)C(C)OC(=O)C(C)C)C(=O)OC(C)C)c1O (stereo not drawn)    < 80%
CC(C)C(=O)O[C@H]1[C@H](C)OC(=O)[C@@H](NC(=O)c2nsnc2O)COC(=O)[C@@H]1Cc1ccccc1    > 80%
CCC(C)C(=O)O[C@H]1[C@H](C)OC(=O)[C@@H](NC(=O)c2nccc(OC)c2OC(C)=O)COC(=O)[C@@H]1Cc1ccccc1 (stereo partly drawn)    < 80%
CC(C)(C)C1CCC(NC(=O)c2cnccc2O)CC1 (stereo not drawn)    < 80%
COc1ccnc(C(=O)N[C@@H]2O[C@H](COC(C)=O)[C@H](OC(C)=O)[C@H](OC(C)=O)[C@H]2OC(C)=O)c1OC(C)=O    < 80%

Sample O=C(Nc1ccc(Oc2ccc(C(F)(F)F)cc2)cc1)c1ncccc1O , system: Rhizoctonia solani (RHIZSO). Its inhibition at 25 ppm is < 80%

Sample COc1ccnc(C(=O)NC2COC(=O)CC(c3ccccc3)C(=O)OC2)c1O (stereo not drawn) , system: Rhizoctonia solani (RHIZSO). Its inhibition at 25 ppm is < 80%

Sample COc1ccnc(C(=O)NC2CC(C)(C)CC(C)(C)C2)c1O , system: Rhizoctonia solani (RHIZSO). Its inhibition at 25 ppm is < 80%
